Values compiled from PubChem BioAssay (NCATS).

Assay Protocol: qHTS of pediatric cancer cell lines to identify multiple opportunities for drug repurposing: Primary screen for A673 cells (AID 1347092); note: nearly all actives have a fitted effect of over 45% in size
Applied Conditions: A673 Ewing sarcoma viability, CellTiter-Glo ATP luminescence, 48 h; series mostly up to 46 µM
Inconclusive results are not listed. Active and inactive are the calls of the source. Calls come from the whole dose curve; as a rule, active = well fitted cell-killing curve with a large enough effect; inconclusive = small, poorly fitted or top-dose-only effect; inactive = no such curve, though single readings can be large or run the other way.
Thanks in advance; please answer with one of these: Yes = active, No = inactive

{"Compound": "C=CC(=O)N1CCc2ccc(-n3c(=O)ccc4cnc5ccc(-c6cnn(C)c6)cc5c43)cc21", "Classification": "Yes"}
{"Compound": "CCOc1cc2ncc(C#N)c(Nc3ccc(OCc4ccccn4)c(Cl)c3)c2cc1NC(=O)C=CCN(C)C", "Classification": "Yes"}
{"Compound": "CCOC(=O)C1=C(C)NC(=S)NC1c1cccc(O)c1 (configuration not stated)", "Classification": "Yes"}
{"Compound": "O=S(=O)(O)CCSSCCS(=O)(=O)O", "Classification": "No"}
{"Compound": "Oc1ccc([C@@H]2Oc3ccc(O)cc3[C@@H]3CCC[C@@H]32)cc1", "Classification": "Yes"}

Outcome? `CN[C@@H]1C[C@H]2O[C@@](C)([C@H]1OC)n1c3ccccc3c3c4c(c5c6ccccc6n2c5c31)C(=O)N[C@H]4O`
Yes

How about this compound: `NC(=O)Nc1cc(-c2ccc(CN3CCOCC3)cc2)sc1C(N)=O`
Yes

How about this compound: `O=C(Nc1cc2cc[nH]c2cn1)c1ccccc1`
Yes

How about this compound: `CCc1c(O)cc(O)c(C(=O)c2ccc(OCCN3CCOCC3)c(OC)c2)c1CC(=O)N(CCOC)CCOC`
Yes

How about this compound: `Cc1onc(-c2ccccc2)c1C(=O)N[C@@H]1C(=O)N2[C@@H](C(=O)O)C(C)(C)S[C@@H]12`
No

How about this compound: `O=C(O)C[C@H](O)C[C@H](O)C=Cc1c(C2CC2)nc2ccccc2c1-c1ccc(F)cc1`
Yes

How about this compound: `CN(C)CCN1C(=O)c2cccc3cc(N)cc(c23)C1=O`
Yes

How about this compound: `C[C@@H](NCc1cc2ccccc2[nH]1)c1cccc2ccccc12`
No

How about this compound: `C#Cc1cccc(Nc2ncnc3cc(OCCOC)c(OCCO)cc23)c1`
Yes

How about this compound: CC(=O)NC(CS)C(=O)O (configuration not stated)
No

How about this compound: `OCCN1C[C@H](O)[C@@H](O)[C@H](O)[C@@H]1CO`
Yes

How about this compound: `Cn1cc(-c2cnn3c(N)c(Br)c([C@H]4CCCNC4)nc23)cn1`
Yes
